Sourced from PubChem BioAssay

The entries below are paired with their reported z-score.
# assay procedure: inhibitors of hydroxyurea-induced Chk1 phosphorylation, primary screen, imaging, HeLa, phospho-Chk1 antibody, percent positive cells (AID 1186)
# conditions used: hydroxyurea-induced phospho-Chk1 immunofluorescence imaging, higher = more signal
Quick one: just the number, no unit, thanks!

Examples with answers:
compound | z-score
COCCOC(=O)N1C(=O)[C@@]2(c3cc(C#CCC(C(=O)OC)C(=O)OC)ccc31)[C@H](c1ccc(O)cc1)N1[C@H](c3ccccc3)[C@H](c3ccccc3)OC(=O)[C@H]1[C@@H]2C(N)=O | 0.676
O=C1O[C@H](c2ccccc2)[C@H](c2ccccc2)N2[C@H]1[C@@H](C(=O)O)[C@]1(C(=O)Nc3ccc(C#CC4=CCCCC4)cc31)[C@H]2c1ccc(OCCO)cc1 | 0.222
C=CCC(OC(C)=O)[C@@H]1[C@@H](N(Cc2cccc3ccccc23)C(=O)c2ccc(C)cc2)c2cc(OCCCO)ccc2N1C(=O)Cc1ccc(OC)cc1 (some centres not stated) | -0.446
Cc1ccc([C@H]2C(C(=O)O)=C[C@@H](C)N2S(=O)(=O)c2ccc(C)cc2)cc1 | 0.502
COc1cc2c(cc1O)C(C)N(Cc1cccc(OC(F)(F)F)c1)CC2 (configuration not stated) | 0.0708
C=C(CCCC)/C(=C/C[C@H](OC(C)=O)c1ccc(CO)o1)c1cnc2ccccc2c1 | 0.0298

We now examine a further compound.
Query block: Any idea what its z-score is? The compound is CC(C)C[C@@H]1NC(=O)[C@H]2C[C@@H](C(=O)NCCCCCCNC(=O)CS)[C@@H](c3cccc(OCCO)c3)N2C1=O
Result block: 0.0162

---

# assay procedure: A549 cell viability effects, profiling panel, calcein-AM fluorescence, 48 h, basal (AID 1162); note: test concentration not given here
# conditions used: higher = more signal
Think of 0.03 as a floor: if z-score stands on it or above, it is Y; beneath it, N.

compound | class assignment
Cc1cc(C)c(C(O)C2C=CC3C(=O)N(C)C(=O)C3N2Nc2ccccc2)c(C)c1 (stereo unspecified) | N

Query block: Reported z-score at or above 0.03? CC(C)C(=C=CC[C@H](O)c1ccccc1OCCO)C[C@H](O)c1ccccn1
Result block: Y

Query block: Try this compound too: C=C(CCCC)/C(=C/C[C@H](OC(C)=O)c1ccc(CO)o1)c1cnc2ccccc2c1
Result block: N

Query block: Try this compound too: CCOC(=O)C[C@H]1[C@H](OC(=O)Cc2ccc3c(c2)OCO3)[C@@H](NC(=O)c2ccc(-c3ccccc3)cc2)c2cc(OCCCO)ccc2N1C(=O)c1ccccc1
Result block: Y

Query block: Try this compound too: Cc1ccc(S[C@]2(C(=O)NCc3ccccc3)CC(=O)N(Cc3ccccc3)[C@@H]2c2ccc(CO)cc2)cc1
Result block: Y

Query block: Try this compound too: CC(C)c1ccc(NN2C(C(O)c3cccc(O)c3)C=CC3C(=O)N(c4ccccc4)C(=O)C32)cc1 (stereo unspecified)
Result block: N

---

# assay procedure: PSAC antagonists in infected red cells, primary screen, cell-based, P. falciparum Indochina, OD700, 18 h (AID 1157)
# conditions used: P. falciparum Indochina infected erythrocytes, osmotic lysis OD700, 18 h; higher = more signal, called active from +8 up or from −8 down
Think of 1 as a floor: if z-score stands on it or above, it is 1; beneath it, -1.

molecule | class assignment
COc1ccc(CCN2C(=O)[C@@]3(Cc4ccccc42)c2ccccc2C(=O)N(Cc2ccccc2Cl)[C@H]3c2ccc(CO)cc2)cc1 | -1
CN(C)CCCCCCNC(=O)[C@H]1C[C@H]2C(=O)N[C@@H](CCCCN)C(=O)N2[C@H]1c1ccc(O)cc1 | -1
C=CCNC(=O)[C@@H]1[C@H]2C(=O)O[C@H](c3ccccc3)[C@H](c3ccccc3)N2[C@H](c2ccc(OCCO)cc2)[C@@]12C(=O)Nc1ccccc12 | -1

Query block: Reported z-score at or above 1? C=C[C@H](COC(C)=O)N(Cc1ccc(OC(C)=O)c(OC)c1)S(=O)(=O)c1ccc(Br)cc1
Result block: -1
